# MEASURED TARGET: GalE (Homo sapiens, UniProt Q14376)
# TEST DETAILS: GalE epimerisation assay (HPAEC, UDP-Gal to UDP-Glc), non-covalent concentration-response
METRIC: IC50 (µM)
// return numeric value only (unit: µM, not printed)

The recorded IC50 with GalE (Homo sapiens, UniProt Q14376) for Cc1cc(NC(=O)NCCC(=O)Nc2ccncc2)no1 [WBX04] was 115

* * *

# TEST DETAILS: Hepatocyte stability assay
# Type: in vitro ADME
# TEST CONTEXT: hepatocytes; preliminary DMPK; read-out: intrinsic clearance
METRIC: hepatocyte CLint
Don't forget the unit after the number, please.

What the record says about O=C(CCNC(=O)Nc1cc(C2CCC2)on1)Nc1ccncc1 [WBX09] : hepatocyte CLint is 42.4 µL/min/1e6 cells

* * *

Target sequence: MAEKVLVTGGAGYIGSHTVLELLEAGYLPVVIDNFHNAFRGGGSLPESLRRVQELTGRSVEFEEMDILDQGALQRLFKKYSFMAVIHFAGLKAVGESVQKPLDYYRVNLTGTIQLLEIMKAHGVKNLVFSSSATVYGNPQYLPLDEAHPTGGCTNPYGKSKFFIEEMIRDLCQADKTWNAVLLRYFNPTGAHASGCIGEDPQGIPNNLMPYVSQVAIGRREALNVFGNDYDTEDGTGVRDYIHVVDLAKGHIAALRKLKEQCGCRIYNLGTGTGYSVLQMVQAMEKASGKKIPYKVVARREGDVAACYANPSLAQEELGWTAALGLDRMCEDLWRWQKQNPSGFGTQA
METRIC: Kd (µM)
The reply should contain only the number, in µM.

Looking up Cc1cc(NC(=O)NCCC(=O)Nc2ccncc2)no1 , I see its Kd listed as 9
